Experiment: CCTE_Simmons_CellTiterGLO_HEK293T: Viability Assessment in CCTE's Assays for Thyroperoxidase (TPO) Inhibition, Simmons Lab (AID 2283665);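 as to AC50: cells exposed to compound for 24 h before readout; actives reduce ATP signal below DMSO vehicle meaning cytotoxicity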
Records with an inconclusive call do not appear. Activity calls are given as the source filed them. The calls were made as follows: active = hit-call score of the fitted dose curve at least 0.9, where 1 is the maximum; inconclusive = response in the unintended direction; inactive = score below 0.9.
Experimental readout: AC50

Observe how each entry below is paired with its result.
Structure smiles	AC50
CCCCC/C=C\C=C\C(=O)OCC	88.6 µM (active)
O=c1cc(-c2ccc(O)cc2)oc2cc(O)cc(O)c12	inactive
O=C(c1ccc(OCCN2CCCCC2)cc1)c1c(-c2ccc(O)cc2)sc2cc(O)ccc12	20 µM (active)
CCC(C)(C)C1CCC(=O)CC1	inactive
Cc1cccc(O)c1	inactive

Exercise: Fill in the blank: the reported AC50 of NC(N)=S is ____.
Key: inactive

Exercise: Fill in the blank: the reported AC50 of CCCc1ccc(O)cc1 is ____.
Key: 87.9 µM (active)

Exercise: Fill in the blank: the reported AC50 of CCCCCCCCCCCCS is ____.
Key: 83.5 µM (active)

Exercise: Fill in the blank: the reported AC50 of CCc1cccc(O)c1 is ____.
Key: inactive

Exercise: Fill in the blank: the reported AC50 of CC(C)(C)c1cccc(O)c1 is ____.
Key: inactive
